- Tested on: VDR homodimer (NR concentration 270 nM)
- Run description: PBM binding z-score (relative to random genomic background probes); higher = stronger binding; sequences stand for … in GC…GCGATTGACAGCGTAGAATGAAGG
Value kind: PBM binding z-score
Reply: number alone, nothing else.

Solved entries (count: 6):
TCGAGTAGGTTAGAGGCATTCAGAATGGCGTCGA | -0.449
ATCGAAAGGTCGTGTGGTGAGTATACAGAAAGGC | 2.03
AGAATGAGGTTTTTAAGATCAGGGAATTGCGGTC | -0.068
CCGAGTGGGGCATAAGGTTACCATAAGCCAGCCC | 0.036
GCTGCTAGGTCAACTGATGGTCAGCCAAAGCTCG | -0.263
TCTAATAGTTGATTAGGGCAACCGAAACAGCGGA | -0.0344

Please report the recorded PBM binding z-score for "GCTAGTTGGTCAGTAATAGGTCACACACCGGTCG" . 0.317

Please report the recorded PBM binding z-score for "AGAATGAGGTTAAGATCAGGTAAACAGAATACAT" . 0.461

Please report the recorded PBM binding z-score for "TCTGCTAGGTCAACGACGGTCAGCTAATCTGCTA" . -0.198

Taken from the supplement of paper PMC6555819.
